# System: KM12
# test.method.notes: Cytotoxicity against Homo sapiens (human) KM12 cells after 48 hr by sulforhodamine B assay
# Format: functional
# measurement.setup: KM12, 48 h
Measured LC50 of individual entries
metric.name: LC50 (µM)

{"compound.string": "O=C(N/N=c1\\scc(-c2ccc(Cl)cc2)n1-c1ccc(Cl)cc1Cl)c1ccc(O)cc1", "metric.name": "LC50", "operator.symbol": "=", "measured.result": 87.1}
{"compound.string": "Cc1ccc(-c2cs/c(=N\\NC(=O)c3ccc(O)cc3)n2-c2c(C)cccc2C)cc1", "metric.name": "LC50", "operator.symbol": ">", "measured.result": 100}
{"compound.string": "COc1ccc(-c2cs/c(=N\\NC(=O)c3ccc(O)cc3)n2-c2ccc(OC)cc2OC)cc1", "metric.name": "LC50", "operator.symbol": "=", "measured.result": 87.1}
{"compound.string": "O=C(c1ccc(O)cc1)n1nc(-c2c(Cl)cccc2Cl)sc1=S", "metric.name": "LC50", "operator.symbol": "=", "measured.result": 41.7}

---

# Tested on: SF-295
# test.method.notes: Cytotoxicity against Homo sapiens (human) SF295 cells after 48 hr by sulforhodamine B assay
# Format: functional
# measurement.setup: SF-295, 48 h, read-out: pTGI (converted)
metric.name: TGI (µM)

{"compound.string": "COc1ccc(-c2cs/c(=N\\NC(=O)c3ccc(O)cc3)n2-c2ccc(OC)cc2OC)cc1", "tested.target": "SF-295", "output.unit": "µM", "operator.symbol": "=", "measured.result": 9.77}
{"compound.string": "O=C(N/N=c1\\scc(-c2ccc(Cl)cc2)n1-c1ccc(Cl)cc1Cl)c1ccc(O)cc1", "tested.target": "SF-295", "output.unit": "µM", "operator.symbol": "=", "measured.result": 9.77}
{"compound.string": "COc1ccc(-n2c(-c3ccc(Cl)cc3)cs/c2=N\\NC(=O)c2ccc(O)cc2)c(OC)c1", "tested.target": "SF-295", "output.unit": "µM", "operator.symbol": ">", "measured.result": 100}
{"compound.string": "Cc1ccc(-c2cs/c(=N\\NC(=O)c3ccc(O)cc3)n2-c2c(C)cccc2C)cc1", "tested.target": "SF-295", "output.unit": "µM", "operator.symbol": "=", "measured.result": 79.4}
{"compound.string": "O=C(c1ccc(O)cc1)n1nc(-c2c(Cl)cccc2Cl)sc1=S", "tested.target": "SF-295", "output.unit": "µM", "operator.symbol": "=", "measured.result": 29.5}

---

# Test system: CAKI-1
# test.method.notes: Cytotoxicity against Homo sapiens (human) Caki1 cells after 48 hr by sulforhodamine B assay
# Type: functional
# measurement.setup: CAKI-1, 48 h
Measured GI50 of individual entries
metric.name: GI50 (µM)

{"compound.string": "O=C(N/N=c1\\scc(-c2ccc(Cl)cc2)n1-c1ccc(Cl)cc1Cl)c1ccc(O)cc1", "tested.target": "CAKI-1", "measured.result": 3.31}
{"compound.string": "COc1ccc(-c2cs/c(=N\\NC(=O)c3ccc(O)cc3)n2-c2ccc(OC)cc2OC)cc1", "tested.target": "CAKI-1", "measured.result": 3.31}
{"compound.string": "COc1ccc(-n2c(-c3ccc(Cl)cc3)cs/c2=N\\NC(=O)c2ccc(O)cc2)c(OC)c1", "tested.target": "CAKI-1", "measured.result": 22.9}
{"compound.string": "O=C(c1ccc(O)cc1)n1nc(-c2c(Cl)cccc2Cl)sc1=S", "tested.target": "CAKI-1", "measured.result": 6.03}
{"compound.string": "Cc1ccc(-c2cs/c(=N\\NC(=O)c3ccc(O)cc3)n2-c2c(C)cccc2C)cc1", "tested.target": "CAKI-1", "measured.result": 10.5}

---

# Test system: HCT-116
# test.method.notes: Cytotoxicity against Homo sapiens (human) HCT116 cells after 48 hr by sulforhodamine B assay
# Format: functional
# measurement.setup: HCT-116, 48 h, read-out: pTGI (converted)
metric.name: TGI (µM)

{"compound.string": "COc1ccc(-c2cs/c(=N\\NC(=O)c3ccc(O)cc3)n2-c2ccc(OC)cc2OC)cc1", "tested.target": "HCT-116", "output.unit": "µM", "operator.symbol": "=", "measured.result": 28.2}
{"compound.string": "COc1ccc(-n2c(-c3ccc(Cl)cc3)cs/c2=N\\NC(=O)c2ccc(O)cc2)c(OC)c1", "tested.target": "HCT-116", "output.unit": "µM", "operator.symbol": ">", "measured.result": 100}
{"compound.string": "Cc1ccc(-c2cs/c(=N\\NC(=O)c3ccc(O)cc3)n2-c2c(C)cccc2C)cc1", "tested.target": "HCT-116", "output.unit": "µM", "operator.symbol": ">", "measured.result": 100}
{"compound.string": "O=C(c1ccc(O)cc1)n1nc(-c2c(Cl)cccc2Cl)sc1=S", "tested.target": "HCT-116", "output.unit": "µM", "operator.symbol": "=", "measured.result": 24}

---

# System: HL-60(TB)
# test.method.notes: Cytotoxicity against Homo sapiens (human) HL-60(TB) cells after 48 hr by sulforhodamine B assay
# Type: functional
# measurement.setup: HL-60, 48 h
metric.name: log10 GI50 (log10 of the value in µM)

{"compound.string": "O=C(N/N=c1\\scc(-c2ccc(Cl)cc2)n1-c1ccc(Cl)cc1Cl)c1ccc(O)cc1", "log10 GI50": -0.52}
{"compound.string": "O=C(c1ccc(O)cc1)n1nc(-c2c(Cl)cccc2Cl)sc1=S", "log10 GI50": 0.30}
{"compound.string": "Cc1ccc(-c2cs/c(=N\\NC(=O)c3ccc(O)cc3)n2-c2c(C)cccc2C)cc1", "log10 GI50": 1.06}
{"compound.string": "COc1ccc(-c2cs/c(=N\\NC(=O)c3ccc(O)cc3)n2-c2ccc(OC)cc2OC)cc1", "log10 GI50": 0.48}
{"compound.string": "COc1ccc(-n2c(-c3ccc(Cl)cc3)cs/c2=N\\NC(=O)c2ccc(O)cc2)c(OC)c1", "log10 GI50": 1.25}

---

# Tested on: NCI-H522
# test.method.notes: Cytotoxicity against Homo sapiens (human) NCI-H522 cells after 48 hr by sulforhodamine B assay
# Assay type: functional
# measurement.setup: NCI-H522, 48 h
Measured GI50 of individual entries

{"compound.string": "O=C(N/N=c1\\scc(-c2ccc(Cl)cc2)n1-c1ccc(Cl)cc1Cl)c1ccc(O)cc1", "tested.target": "NCI-H522", "output.unit": "µM", "GI50": 2.57}
{"compound.string": "Cc1ccc(-c2cs/c(=N\\NC(=O)c3ccc(O)cc3)n2-c2c(C)cccc2C)cc1", "tested.target": "NCI-H522", "output.unit": "µM", "GI50": 20.9}
{"compound.string": "O=C(c1ccc(O)cc1)n1nc(-c2c(Cl)cccc2Cl)sc1=S", "tested.target": "NCI-H522", "output.unit": "µM", "GI50": 11.7}
{"compound.string": "COc1ccc(-c2cs/c(=N\\NC(=O)c3ccc(O)cc3)n2-c2ccc(OC)cc2OC)cc1", "tested.target": "NCI-H522", "output.unit": "µM", "GI50": 2.57}

---

Measured GI50 of individual entries
# test.method.notes: Cytotoxicity against Homo sapiens (human) NCI-ADR-RES cells after 48 hr by sulforhodamine B assay
# Type: functional

{"compound.string": "COc1ccc(-c2cs/c(=N\\NC(=O)c3ccc(O)cc3)n2-c2ccc(OC)cc2OC)cc1", "GI50": "2.95 µM"}
{"compound.string": "Cc1ccc(-c2cs/c(=N\\NC(=O)c3ccc(O)cc3)n2-c2c(C)cccc2C)cc1", "GI50": "21.4 µM"}
{"compound.string": "O=C(c1ccc(O)cc1)n1nc(-c2c(Cl)cccc2Cl)sc1=S", "GI50": "10 µM"}
{"compound.string": "O=C(N/N=c1\\scc(-c2ccc(Cl)cc2)n1-c1ccc(Cl)cc1Cl)c1ccc(O)cc1", "GI50": "2.95 µM"}

---

Measured TGI of individual entries
# Test system: PC-3
# test.method.notes: Cytotoxicity against Homo sapiens (human) PC3 cells after 48 hr by sulforhodamine B assay
# Format: functional
# measurement.setup: PC-3, 48 h, read-out: pTGI (converted)

{"compound.string": "O=C(c1ccc(O)cc1)n1nc(-c2c(Cl)cccc2Cl)sc1=S", "tested.target": "PC-3", "operator.symbol": "=", "TGI / µM": 30.2}
{"compound.string": "Cc1ccc(-c2cs/c(=N\\NC(=O)c3ccc(O)cc3)n2-c2c(C)cccc2C)cc1", "tested.target": "PC-3", "operator.symbol": "=", "TGI / µM": 91.2}
{"compound.string": "COc1ccc(-c2cs/c(=N\\NC(=O)c3ccc(O)cc3)n2-c2ccc(OC)cc2OC)cc1", "tested.target": "PC-3", "operator.symbol": ">", "TGI / µM": 100}
{"compound.string": "COc1ccc(-n2c(-c3ccc(Cl)cc3)cs/c2=N\\NC(=O)c2ccc(O)cc2)c(OC)c1", "tested.target": "PC-3", "operator.symbol": ">", "TGI / µM": 100}
{"compound.string": "O=C(N/N=c1\\scc(-c2ccc(Cl)cc2)n1-c1ccc(Cl)cc1Cl)c1ccc(O)cc1", "tested.target": "PC-3", "operator.symbol": ">", "TGI / µM": 100}
